Source listed as ChEMBL document CHEMBL5236603.

assayed system: UniProt:P00533
Sequence (P00533 whole entry): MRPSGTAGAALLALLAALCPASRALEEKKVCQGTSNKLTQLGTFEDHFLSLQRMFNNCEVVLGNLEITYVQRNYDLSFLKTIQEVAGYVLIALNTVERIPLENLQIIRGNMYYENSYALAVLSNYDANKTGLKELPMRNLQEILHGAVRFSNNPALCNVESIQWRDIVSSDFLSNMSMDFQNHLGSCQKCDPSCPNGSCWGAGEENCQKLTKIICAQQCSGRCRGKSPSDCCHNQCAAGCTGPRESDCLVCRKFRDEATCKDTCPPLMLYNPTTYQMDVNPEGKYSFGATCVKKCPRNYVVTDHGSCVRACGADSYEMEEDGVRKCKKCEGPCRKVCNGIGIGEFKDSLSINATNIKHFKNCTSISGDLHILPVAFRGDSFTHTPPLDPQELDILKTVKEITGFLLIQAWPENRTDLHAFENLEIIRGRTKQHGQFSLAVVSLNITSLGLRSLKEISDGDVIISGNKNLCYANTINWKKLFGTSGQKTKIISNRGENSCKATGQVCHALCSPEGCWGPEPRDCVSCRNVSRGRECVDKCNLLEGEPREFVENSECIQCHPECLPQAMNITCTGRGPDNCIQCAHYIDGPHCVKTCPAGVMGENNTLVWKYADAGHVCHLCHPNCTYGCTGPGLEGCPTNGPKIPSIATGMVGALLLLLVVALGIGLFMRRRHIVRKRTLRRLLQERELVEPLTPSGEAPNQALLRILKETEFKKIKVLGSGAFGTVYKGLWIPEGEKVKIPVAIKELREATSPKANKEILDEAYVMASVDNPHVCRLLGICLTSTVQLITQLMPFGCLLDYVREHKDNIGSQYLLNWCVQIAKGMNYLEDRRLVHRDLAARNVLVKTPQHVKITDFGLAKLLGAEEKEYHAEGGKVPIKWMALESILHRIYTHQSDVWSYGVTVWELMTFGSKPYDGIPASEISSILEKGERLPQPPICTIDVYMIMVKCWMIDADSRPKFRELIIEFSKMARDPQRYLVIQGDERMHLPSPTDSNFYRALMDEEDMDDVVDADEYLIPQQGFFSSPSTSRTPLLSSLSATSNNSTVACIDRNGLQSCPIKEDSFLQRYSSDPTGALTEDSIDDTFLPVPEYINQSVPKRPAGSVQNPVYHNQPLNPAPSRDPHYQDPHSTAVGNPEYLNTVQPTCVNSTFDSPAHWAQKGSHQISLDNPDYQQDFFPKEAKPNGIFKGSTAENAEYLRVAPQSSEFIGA
method: Inhibition of […]-induced EGFR phosphorylation in human A549 cells pretreated for 2 hrs followed by EGF stimulation by immune assay
Format: cell-based
# reported IC50; entries follow
Quick reminder: number only, in µM, skip the unit.

See these solved cases before continuing.
In [3]: df
Out[3]:
                                smiles_repr  observed_measurement
0  C=CC(=O)Nc1cc(Nc2ncc(-c3nc(C)no3)c(-c3cn4c5c(cccc35)CCC4)n2)c(OC)cc1N(C)CCN(C)C                 0.049
1  C=CC(=O)Nc1cc(Nc2ncc(C(=O)OC(C)C)c(-c3cn(C(C)=O)c4ccccc34)n2)c(OC)cc1N(C)CCN(C)C                 0.079
2  C=CC(=O)Nc1cc(Nc2nccc(-c3cn4c5c(cccc35)CCC4)n2)c(OC)cc1N(C)CCN(C)C                 0.405
3  C=CC(=O)Nc1cc(Nc2ncc(Cl)c(-c3c4n(c5ccccc35)CCOC4)n2)c(OC)cc1N(C)CCN(C)C                  2.97
4  C=CC(=O)Nc1cc(Nc2ncc(C(=O)OC)c(-c3cn4c5c(cccc35)CCC4)n2)c(OC)cc1N(C)CCN(C)C                  0.04
5  C=CC(=O)Nc1cc(Nc2ncc(C(=O)OC(C)C)c(-c3cn(C)c4ccccc34)n2)c(OC)cc1N(C)C[C@H]1CCCN1C                 0.043
6  C=CC(=O)Nc1cc(Nc2ncc(C(=O)OC(C)C)c(-c3cn(C4CC4)c4ccccc34)n2)c(OC)cc1N(C)CCN(C)C                 0.224
7  C=CC(=O)Nc1cc(Nc2ncc(C(=O)OC3CCC3)c(-c3cn(C)c4ccccc34)n2)c(OC)cc1N(C)CCN(C)C                 0.084

Determine from records and report IC50 for C=CC(=O)Nc1cc(Nc2ncc(-c3cnn(C)c3)c(-c3cn4c5c(cccc35)CCC4)n2)c(OC)cc1N(C)CCN(C)C 0.015

Determine from records and report IC50 for C=CC(=O)Nc1cc(Nc2ncc(C(=O)OCC)c(-c3cn(C)c4ccccc34)n2)c(OC)cc1N(C)CCN(C)C 0.019

Determine from records and report IC50 for C=CC(=O)Nc1cc(Nc2ncc(Cl)c(-c3cn4c5c(cccc35)OCC4)n2)c(OC)cc1N(C)CCN(C)C 0.036

Determine from records and report IC50 for C=CC(=O)Nc1cc(Nc2ncc(C(=O)OC(C)C)c(-c3cn4c5c(cccc35)CCC4)n2)c(OC)cc1N(C)CCN(C)C 0.039

Determine from records and report IC50 for C=CC(=O)Nc1cc(Nc2ncc(C(=O)OC(C)C)c(-c3cn(C)c4ccccc34)n2)c(OC)cc1N(C)C[C@@H]1CCCN1C 0.057

Determine from records and report IC50 for C=CC(=O)Nc1cc(Nc2ncc(Cl)c(-c3cnn4ccccc34)n2)c(OC)cc1N(C)CCN(C)C 0.095

###

# reported AUC(0-t); entries follow
method: AUClast in CD-1 rat at 10 mg/kg, po by LC/MS/MS analysis
Format: ADME, organism-based
Parameters: dose 10 mg/kg, route po
condition notes: in vivo
Quick reminder: number only, in ng·h/mL, skip the unit.

See these solved cases before continuing.
In [3]: df
Out[3]:
                                smiles_repr  display_unit  observed_measurement
0  C=CC(=O)Nc1cc(Nc2nccc(-c3c4n(c5ccccc35)CCOC4)n2)c(OC)cc1N(C)CCN(C)C       ng·h/mL                  2670
1  C=CC(=O)Nc1cc(Nc2ncc(C(=O)OC)c(-c3cn4c5c(cccc35)CCC4)n2)c(OC)cc1N(C)CCN(C)C       ng·h/mL                  1920
2  C=CC(=O)Nc1cc(Nc2ncc(-c3ccnn3C)c(-c3cn4c5c(cccc35)CCC4)n2)c(OC)cc1N(C)CCN(C)C       ng·h/mL                  2950
3  C=CC(=O)Nc1cc(Nc2ncc(C(=O)OCC)c(-c3cn(C)c4ccccc34)n2)c(OC)cc1N(C)CCN(C)C       ng·h/mL                  1540

Determine from records and report AUC(0-t) for C=CC(=O)Nc1cc(Nc2ncc(C(=O)OC)c(-c3cn(C)c4ccccc34)n2)c(OC)cc1N(C)CCN(C)C 2300

Determine from records and report AUC(0-t) for C=CC(=O)Nc1cc(Nc2ncc(C(=O)OC(C)C)c(-c3cn(CC)c4ccccc34)n2)c(OC)cc1N(C)CCN(C)C 1920
